Species: Rattus norvegicus
Assay: Open TG-GATES - Regimen: Daily Repeat
Assay type: toxicity, organism-based, Sprague-Dawley
Parameters: regimen Daily Repeat, gender Male, age 6 weeks
Details: in vivo, po, 0 mg/kg, […], tissue Plasma, route gavage, dose level Control, time 7 day
Here the recorded DBIL is given for each entry.
Only the number, expressed in mg/dL, is required.

Would you please look over these solved cases?
Cc1cccc(C)c1OCC(C)N (stereo not given) [MEXILETINE] : 0
C=C(C)[C@H]1Cc2c(ccc3c2O[C@@H]2COc4cc(OC)c(OC)cc4[C@@H]2C3=O)O1 [ROTENONE] : 0.014
O=C1CN(/N=C/c2ccc([N+](=O)[O-])o2)C(=O)N1 [NITROFURANTOIN] : 0.1
OCCN1CCN(CCCN2c3ccccc3Sc3ccc(C(F)(F)F)cc32)CC1 [FLUPHENAZINE] : 0.016

Continue with the molecule presented below.
Query block: Form field: reported DBIL of CCOC(=O)C(C)(C)Oc1ccc(Cl)cc1 [CLOFIBRATE]
Result block: 0.098
